Entry source: patent US20250353873A1

// reported APOE RNA (% control) Spinal Cord per item
test system: human APOE RNA; test: Potency (dose response, ED50) in APOE C57BL/6NTac-Apoeem7250 knock-in mice, 4 weeks (Example 14); type: in vivo; conditions: spinal cord, ICV dose 30 μg
Strand notation (5' to 3'): a small letter for the sugar, then the base; units joined by * are phosphorothioate-linked, units joined directly phosphodiester-linked; [ ] holds rarer units or linkages, { } end groups; capitals alone tell only the bases. [ms] = mesyl phosphoramidate linkage; e = 2'-O-(2-methoxyethyl) (MOE); k = constrained ethyl (cEt); [5mC] = 5-methylcytosine; d = 2'-deoxy (DNA)
Just the number please, in % control, no unit attached.

Solved cases below.
substance	APOE RNA (% control) Spinal Cord
1778130: modified oligonucleotide complementary to human APOE RNA (eA*e[5mC]eTeTeG*kG*dT*dG[ms]dA[ms]dA*dT*d[5mC]*dT*dT*dT*dA[ms]kTkT*eA*eA; antisense) [compound 1778130]	35
1693105: 6-10-4 MOE gapmer CTTGGTGAATCTTTATTAAA, linkages sosssszzzssssszssss (e[5mC]*eTeT*eG*eG*eT*dG[ms]dA[ms]dA[ms]dT*d[5mC]*dT*dT*dT*dA[ms]dT*eT*eA*eA*eA) [compound 1693105]	71

Q. Send back human APOE RNA APOE RNA (% control) Spinal Cord of 1778131: modified oligonucleotide complementary to human APOE RNA (eA*e[5mC]eTeTeGkG*dT*dG[ms]dA[ms]dA*dT*d[5mC]*dT*dT*dT*dA[ms]kTkT*eA*eA; antisense) [compound 1778131] only.
A. 64

---

system: human APOE RNA; experiment: Dose-dependent reduction of human APOE RNA in HepG2 cells, electroporation, 20,000 cells per well, average of GAPDH- and PPIA-normalized results (Example 4, Table 12); assay type: cell-based; settings: 13 nM, HepG2, 20,000 cells per well
Strand notation (5' to 3'): a small letter for the sugar, then the base; units joined by * are phosphorothioate-linked, units joined directly phosphodiester-linked; [ ] holds rarer units or linkages, { } end groups; capitals alone tell only the bases. [ms] = mesyl phosphoramidate linkage; e = 2'-O-(2-methoxyethyl) (MOE); k = constrained ethyl (cEt); [5mC] = 5-methylcytosine; d = 2'-deoxy (DNA)
The entries below are paired with their reported APOE RNA (% UTC).
Quick note: give the figure in % UTC, leave out the unit.

Below: 2 substances and their reported APOE RNA (% UTC).
substance	APOE RNA (% UTC)
Aes^mCeoTeoTesGesGksTdsGdzAdzAdzTds^mCdsTdsTdsTdsAdzTksTksAesAe (eA*e[5mC]eTeT*eG*kG*dT*dG[ms]dA[ms]dA[ms]dT*d[5mC]*dT*dT*dT*dA[ms]kT*kT*eA*eA) [Compound No. 1757576]	88
1778128: modified oligonucleotide complementary to human APOE RNA (eA*e[5mC]eTeTkGkG*dT*dG[ms]dA[ms]dA*dT*d[5mC]*dT*dT*dT*dA[ms]kTeT*eA*eA; antisense) [compound 1778128]	95

Q. System human APOE RNA. Read-out APOE RNA (% UTC). Item 1778111: modified oligonucleotide complementary to human APOE RNA (eA*e[5mC]eTeTeG*kG*dT*dG[ms]dA[ms]dA*dT*d[5mC]*dT*dT*dT*dA[ms]eTeT*eA*eA; antisense) [compound 1778111] . Report value.
A. 88

Q. Report its APOE RNA (% UTC) with human APOE RNA as the test system: ^mCksTksTksGdzGdzTdzGdzAdzAdzTds^mCdsTdsTdsTdsAdsTdsTksAksAdzAk (antisense k[5mC]*kT*kT*dG[ms]dG[ms]dT[ms]dG[ms]dA[ms]dA[ms]dT*d[5mC]*dT*dT*dT*dA*dT*kT*kA*dA[ms]kA) [Compound No. 1785602]
A. 91
